# subject-of-test: LINE1 reverse transcriptase (Homo sapiens, UniProt O00370)
# Construct: expressed in transfected cells; host or cells: HeLa Tet-On 3G (Takara, cat no 631183)
# Sequence (O00370 whole entry, looked up): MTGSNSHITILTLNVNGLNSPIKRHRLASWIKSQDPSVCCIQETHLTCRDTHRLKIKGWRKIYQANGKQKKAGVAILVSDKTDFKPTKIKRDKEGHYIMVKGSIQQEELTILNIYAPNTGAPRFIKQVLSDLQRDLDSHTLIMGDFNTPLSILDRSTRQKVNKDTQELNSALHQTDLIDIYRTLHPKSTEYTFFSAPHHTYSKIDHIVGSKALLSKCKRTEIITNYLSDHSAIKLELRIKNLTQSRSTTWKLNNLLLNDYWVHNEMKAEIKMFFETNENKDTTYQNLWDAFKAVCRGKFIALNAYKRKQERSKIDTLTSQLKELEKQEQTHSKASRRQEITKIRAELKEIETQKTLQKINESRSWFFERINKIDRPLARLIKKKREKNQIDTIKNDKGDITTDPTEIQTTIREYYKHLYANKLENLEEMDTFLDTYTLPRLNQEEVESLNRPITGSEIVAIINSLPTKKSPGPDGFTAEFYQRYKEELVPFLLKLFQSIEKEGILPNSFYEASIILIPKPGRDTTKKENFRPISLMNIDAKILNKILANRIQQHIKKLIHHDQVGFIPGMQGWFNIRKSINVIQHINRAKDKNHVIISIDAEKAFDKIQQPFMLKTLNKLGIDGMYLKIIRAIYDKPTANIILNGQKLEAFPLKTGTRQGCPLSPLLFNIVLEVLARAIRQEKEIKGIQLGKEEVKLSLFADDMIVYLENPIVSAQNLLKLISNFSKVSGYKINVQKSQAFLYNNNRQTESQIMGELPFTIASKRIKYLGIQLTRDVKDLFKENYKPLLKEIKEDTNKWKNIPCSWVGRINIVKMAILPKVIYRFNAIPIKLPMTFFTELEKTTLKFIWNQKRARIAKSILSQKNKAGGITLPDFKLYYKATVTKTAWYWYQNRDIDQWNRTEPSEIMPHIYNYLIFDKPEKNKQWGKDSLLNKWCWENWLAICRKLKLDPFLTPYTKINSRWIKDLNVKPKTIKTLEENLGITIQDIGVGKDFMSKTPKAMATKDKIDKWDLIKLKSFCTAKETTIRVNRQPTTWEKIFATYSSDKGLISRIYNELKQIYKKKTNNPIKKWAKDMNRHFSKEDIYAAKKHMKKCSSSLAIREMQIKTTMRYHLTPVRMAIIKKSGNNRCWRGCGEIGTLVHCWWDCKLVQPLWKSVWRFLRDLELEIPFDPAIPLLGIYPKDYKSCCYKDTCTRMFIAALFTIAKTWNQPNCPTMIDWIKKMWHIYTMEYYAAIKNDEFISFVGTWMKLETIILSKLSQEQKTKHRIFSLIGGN
# test-name: Stable artificial-intron Cis LINE1 reporter assay (HeLa Tet-On 3G, Firefly luciferase)
# Type: cell-based
# conditions-used: HeLa L1 artificial-intron reporter cells, doxycycline 500 ng/mL, 72 h, class symbols
pIC50: −log10 of the molar value.
Here, each record is paired with measured pIC50 data.

compound: CSC[C@]1(CO)O[C@@H](n2cc(F)c(N)nc2=O)[C@@H](F)[C@@H]1O [Compound 135]
pIC50: < 6.00
--
compound: Nc1nc(=O)n([C@@H]2O[C@@](CO)(CBr)[C@@H](O)[C@@H]2F)cc1F [Compound 86]
pIC50: ≥ 7.30
--
compound: Nc1nc(=O)n([C@@H]2OC(CO)(CO)[C@@H](O)[C@@H]2F)cc1F [Compound 177]
pIC50: < 6.00

Item C=C[C@]1(CO)O[C@@H](n2ccc(N)nc2=O)C[C@@H]1O [Compound 43] was tested on LINE1 reverse transcriptase (Homo sapiens, UniProt O00370); the reported pIC50 is ≥ 7.30

----------
Entries and their IC50 values follow.
# subject-of-test: LINE1 reverse transcriptase (Homo sapiens, UniProt O00370)
# Construct: expressed in transfected cells; host or cells: HeLa Tet-On 3G (Takara, cat no 631183)
# test-name: Stable artificial-intron Cis LINE1 reporter assay (HeLa Tet-On 3G, Firefly luciferase)
# Type: cell-based
# conditions-used: HeLa L1 artificial-intron reporter cells, doxycycline 500 ng/mL, 72 h, class symbols

Solved cases below.
compound: CC(C)C(=O)OC[C@@]1(CCl)O[C@@H](n2cc(F)c(N)nc2=O)[C@@H](F)[C@@H]1OC(=O)C(C)C
subject-of-test: LINE1 reverse transcriptase (Homo sapiens, UniProt O00370)
IC50: 250 to 1000 nM
//
compound: C#C[C@]1(CO)O[C@@H](n2ccc(N)nc2=O)C[C@@H]1O
subject-of-test: LINE1 reverse transcriptase (Homo sapiens, UniProt O00370)
IC50: ≤ 50 nM
//
compound: C=C[C@]1(CO)O[C@@H](n2cnc3c(O)nc(N)nc32)C[C@@H]1O
subject-of-test: LINE1 reverse transcriptase (Homo sapiens, UniProt O00370)
IC50: ≤ 50 nM
//
compound: Nc1nc2c(ncn2[C@@H]2O[C@@](CO)(CF)[C@@H](O)[C@@H]2F)c(=O)[nH]1
subject-of-test: LINE1 reverse transcriptase (Homo sapiens, UniProt O00370)
IC50: > 1000 nM

Sample Nc1nc(=O)n([C@@H]2O[C@@](CO)(CF)[C@@H](O)[C@@H]2O)cc1F , system: LINE1 reverse transcriptase (Homo sapiens, UniProt O00370). Its IC50 is 250 to 1000 nM

Nc1nc(=O)n([C@@H]2O[C@@](CO)(CCl)[C@@H](O)[C@@H]2F)cc1F tested on LINE1 reverse transcriptase (Homo sapiens, UniProt O00370) gave IC50: ≤ 50 nM

For CCCC1(CO)O[C@@H](n2ccc(N)nc2=O)C[C@@H]1O (stereo partly drawn) on LINE1 reverse transcriptase (Homo sapiens, UniProt O00370), measured IC50 was > 1000 nM

# O=c1nc(NO)ccn1[C@@H]1O[C@@](CO)(CCl)[C@@H](O)[C@H]1F with LINE1 reverse transcriptase (Homo sapiens, UniProt O00370): IC50 is > 1000 nM

Readout IC50 for O=c1ccn([C@@H]2O[C@@](CO)(CCl)[C@@H](O)[C@H]2F)c(=O)[nH]1 , test system LINE1 reverse transcriptase (Homo sapiens, UniProt O00370), was > 1000 nM

Given the compound C=C[C@]1(COC(=O)C(C)C)O[C@@H](n2ccc(N)nc2=O)C[C@@H]1OC(=O)C(C)C and test system LINE1 reverse transcriptase (Homo sapiens, UniProt O00370), the measured IC50 is 250 to 1000 nM

LINE1 reverse transcriptase (Homo sapiens, UniProt O00370) data for CC(C)C(=O)OC[C@@]1(CCl)O[C@@H](n2ccc(N)nc2=O)[C@H](F)[C@@H]1OC(=O)C(C)C ; its IC50: 250 to 1000 nM

LINE1 reverse transcriptase (Homo sapiens, UniProt O00370) IC50 of [N-]=[N+]=N[C@]1(CO)O[C@@H](n2cnc3c(=O)[nH]c(N)nc32)C[C@@H]1O is 50 to 100 nM

Every entry's value here was drawn from patent US20230295212A1.
